Measured values drawn from patent US5986131A for this set.

system: Rhino mouse utricles; assay: Rhino mouse utricle reduction activity; assay type: in vivo, Rhino mice; conditions: topical, 100 μg/day; ns = not statistically significant, others p<0.05
Assay endpoint: Utricle size % Change from Control (%)
Numbers only, in %.

Compound: CC1=C(/C=C/C(C)=C/C=C/C(C)=C\C(=O)O)C(C)(C)CCC1 [13-cis-retinoic acid, reference compound]
Endpoint result: -68

Parameter requested: Utricle size % Change from Control. Apply to each item below.
1. CC1=C(/C=C/C2=C(/C=C/C(C)=C/C(=O)O)CCCC2)C(C)(C)CCC1
2. CC1=C(/C=C/C(C)=C\C=C\C(C)=C\C(=O)O)C(C)(C)CCC1 [9-cis-retinoic acid, reference compound]
3. CC1=C(/C=C/C(C)=C(Br)\C=C\C(C)=C\C(=O)O)C(C)(C)CCC1
4. CC1=C(/C=C/C(C)=C(Cl)\C=C\C(C)=C\C(=O)O)C(C)(C)CCC1

Response given:
1. -39
2. -73
3. -44
4. -63

----------
system: Rhino mouse utricles; experiment: Rhino mouse utricle reduction activity; format: in vivo, Rhino mice; conditions: topical, 0.1 μg/day; ns = not statistically significant, others p<0.05
Assay endpoint: Utricle size % Change from Control

Compound: CC1=C(/C=C/C(C)=C(Br)\C=C\C(C)=C\C(=O)O)C(C)(C)CCC1
Assay endpoint: Utricle size % Change from Control
Endpoint result: -2%
//
Compound: CC1=C(/C=C/C(C)=C(Cl)\C=C\C(C)=C\C(=O)O)C(C)(C)CCC1
Assay endpoint: Utricle size % Change from Control
Endpoint result: -7%
//
Compound: CC1=C(/C=C/C2=C(/C=C/C(C)=C/C(=O)O)CCCC2)C(C)(C)CCC1
Assay endpoint: Utricle size % Change from Control
Endpoint result: +1%
//
Compound: CC1=C(/C=C/C(C)=C\C=C\C(C)=C\C(=O)O)C(C)(C)CCC1 [9-cis-retinoic acid, reference compound]
Assay endpoint: Utricle size % Change from Control
Endpoint result: -11%

Challenge: Field: Utricle size % Change from Control (Rhino mouse utricles). Entry: CC1=C(/C=C/C(C)=C/C=C/C(C)=C\C(=O)O)C(C)(C)CCC1 [13-cis-retinoic acid, reference compound]
Response given: -6%

----------
biological target: UniProtKB P10276; assay: RARα binding; settings: Table 2; read-out: RARα binding IC50
Sequence (P10276 whole entry, species assumed): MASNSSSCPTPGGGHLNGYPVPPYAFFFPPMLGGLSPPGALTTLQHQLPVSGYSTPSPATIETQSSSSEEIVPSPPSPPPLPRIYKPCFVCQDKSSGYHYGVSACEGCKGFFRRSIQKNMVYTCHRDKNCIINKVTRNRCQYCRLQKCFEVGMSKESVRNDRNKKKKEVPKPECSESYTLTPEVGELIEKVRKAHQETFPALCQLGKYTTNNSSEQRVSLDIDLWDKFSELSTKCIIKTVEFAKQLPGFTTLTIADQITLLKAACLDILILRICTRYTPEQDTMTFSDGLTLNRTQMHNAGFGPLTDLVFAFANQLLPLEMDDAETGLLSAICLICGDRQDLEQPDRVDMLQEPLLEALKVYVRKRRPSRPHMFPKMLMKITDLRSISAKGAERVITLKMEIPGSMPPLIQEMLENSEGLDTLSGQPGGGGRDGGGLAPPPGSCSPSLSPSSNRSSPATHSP
Assay endpoint: IC50

Challenge: Field: IC50 (UniProtKB P10276). Entry: CC1=C(/C=C/C2=C(/C=C/C(C)=C/C(=O)O)CCCC2)C(C)(C)CCC1 [Example 4]
Response given: > 10 µM
